- Test system: K4 kissing-loop RNA reporter;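 also: bound reporter read as fluorescence of individual clusters on recovered sequencing chips by microscopy, with normalized cluster intensities fitted with a binding model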
- assay.protocol: apparent KD of K4 kissing-loop reporter; higher = weaker reporter binding
- measurement.parameters: Eterna round: R107; input ligand: theophylline 20 uM
Label no if apparent KD of K4 kissing-loop reporter falls below 200 nM; label yes in every other case.

Exercise: Hi team, for AAUUUAUAUUUAUUCUUUAAAUGUUCAGAAGGAGCGUGAAUUAUCACAGGUAGGUCGCUGAGCUAGUGAUGUUAGCUAUAUACUA [JR_ExcArginiA_Sub007] , is the recorded apparent KD of K4 kissing-loop reporter at or above 200 nM?
Solution: no

Exercise: Hi team, for UAAUCACUCGAACUUGCAACUCGAGUGGAACGAGGACCGGUACGGCCGCCACUCGAUAACUUGCAGUGAUGUUGCAAGUAAGAAU [(T)''-(K)'-(T)'-(T1)-(T2)-(K1)-(K2)_Design8] , is the recorded apparent KD of K4 kissing-loop reporter at or above 200 nM?
Solution: yes

Exercise: Hi team, for UGACUGGAUGGAAGGAGCGCUAAACUCCUAGUGAUGUUAGGGACAUGAGGCACAGCCUUGAAGCAGGUAGGUCGCCAUCUAGUCU [FiskerMod 28 - Jieux - Same State - Arginine B] , is the recorded apparent KD of K4 kissing-loop reporter at or above 200 nM?
Solution: no

Exercise: Hi team, for UCGAGUGAUGUUCGAUUUCAGUGAAGAGAUACCAGCCGCAGUGUAGGCCCUUGGCAGCUCGGCUAUUAUGACAUAUGCAGUUUAG [theeternabot_sameState_KL_Theo_A_29] , is the recorded apparent KD of K4 kissing-loop reporter at or above 200 nM?
Solution: no

Exercise: Hi team, for GUGCGGCUAGUGAUGUUGGUUGCGUGGGAAGGAGCGCAGAAACAUGCAGGUAGGUCGCCCACACCUCUGAAAGGAGGCUAAUUCA [Bisobi] , is the recorded apparent KD of K4 kissing-loop reporter at or above 200 nM?
Solution: yes

The origin of these recorded values is the supplement of paper PMC9170038.
